Taken from paper PMC8998336.

Listed below: Kd values for each entry.
- TARGET OR TEST SYSTEM: human cationic trypsin (TRY1) p.S200A (human, UniProt P07477 24-247, p.S200A)
- Sequence (P07477 24-247 S200A): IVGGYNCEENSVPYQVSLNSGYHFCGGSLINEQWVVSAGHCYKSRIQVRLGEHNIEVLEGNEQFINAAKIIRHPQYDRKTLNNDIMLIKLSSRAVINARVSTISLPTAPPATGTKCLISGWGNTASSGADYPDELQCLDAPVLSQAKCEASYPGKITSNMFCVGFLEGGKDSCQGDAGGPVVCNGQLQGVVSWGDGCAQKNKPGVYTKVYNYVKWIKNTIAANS
- TEST PROTOCOL: SPR
All answers are understood in nM, so give the number only.

[[record]]
binder = "serine protease inhibitor Kazal-type 1 (SPINK1) WT (natural protein) DSLGREAKCYNELNGCTKIYDPVCGTDGNTYPNECVLCFENRKRQTSILIQKSGPC"
observed = 0.8


query: Query Kd for serine protease inhibitor Kazal-type 1 (SPINK1) p.N34S (natural protein) DSLGREAKCYSELNGCTKIYDPVCGTDGNTYPNECVLCFENRKRQTSILIQKSGPC
result: 0.863
